Assay: In vitro cytotoxicity assay (MTT)
Assay type: cell-based, mouse
Settings: mouse, RAW264.7 cells, conc. 3.03 μM; read-out: cell viability relative to 0 μM (fig. S5e)
Entries and their measured viability at 24 h, 3.03 μM follow.
measurement type: viability at 24 h, 3.03 μM (%)

[[record]]
entry_smiles = "CCOC(=O)c1sc(NC(=O)/C(=N/Nc2ccc(O)cc2C(=O)O)C(C)=O)nc1C"
measurement_type = "viability at 24 h, 3.03 μM"
endpoint_unit = "%"
numeric_value = 127

[[record]]
entry_smiles = "CCOC(=O)c1sc(NC(=O)/C(=N/Nc2ccccc2C(=O)O)C(C)=O)nc1C"
measurement_type = "viability at 24 h, 3.03 μM"
endpoint_unit = "%"
numeric_value = 121

